Target: LIM domain kinase 1 (Homo sapiens, UniProt P53667); also: in the data inactive means no Kd found up to 30 µM
Sequence (P53667 whole entry, the tested form may be a part): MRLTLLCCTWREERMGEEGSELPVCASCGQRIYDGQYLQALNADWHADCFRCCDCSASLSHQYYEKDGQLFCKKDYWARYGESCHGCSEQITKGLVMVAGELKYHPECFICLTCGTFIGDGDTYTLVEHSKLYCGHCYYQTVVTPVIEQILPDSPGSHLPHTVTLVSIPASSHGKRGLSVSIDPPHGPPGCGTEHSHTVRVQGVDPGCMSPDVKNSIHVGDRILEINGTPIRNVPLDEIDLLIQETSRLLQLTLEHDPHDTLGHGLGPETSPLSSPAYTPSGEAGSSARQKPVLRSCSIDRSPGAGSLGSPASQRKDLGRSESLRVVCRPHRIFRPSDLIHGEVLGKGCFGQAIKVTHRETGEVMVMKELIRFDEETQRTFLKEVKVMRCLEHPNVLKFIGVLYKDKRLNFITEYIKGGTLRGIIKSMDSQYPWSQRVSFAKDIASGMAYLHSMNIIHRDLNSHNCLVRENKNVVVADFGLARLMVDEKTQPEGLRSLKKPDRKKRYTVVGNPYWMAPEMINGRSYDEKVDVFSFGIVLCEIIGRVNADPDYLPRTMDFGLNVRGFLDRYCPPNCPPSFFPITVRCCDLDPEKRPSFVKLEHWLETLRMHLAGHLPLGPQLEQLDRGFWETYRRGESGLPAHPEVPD
Structures can show the parent of a compound that is named as a salt. Active and inactive are the calls of the source.
Could you please pick one outcome from this set? active, inactive

Consider the worked cases shown below.
{"Compound": "CNC(=O)c1nn(C)c2c1C(C)(C)Cc1cnc(Nc3ccc(N4CCN(C)CC4)cc3)nc1-2", "Assayed target": "LIM domain kinase 1 (Homo sapiens, UniProt P53667)", "Assigned category": "inactive"}
{"Compound": "Cn1ncc(Cl)c1-c1cc(C(=O)N[C@H](CN)Cc2ccc(F)c(F)c2)oc1Cl", "Assayed target": "LIM domain kinase 1 (Homo sapiens, UniProt P53667)", "Assigned category": "inactive"}
{"Compound": "C[C@@H](N)c1ccc(C(=O)Nc2ccnc3[nH]ccc23)cc1", "Assayed target": "LIM domain kinase 1 (Homo sapiens, UniProt P53667)", "Assigned category": "inactive"}

Task: What is the recorded call for this compound in the test? N#CC1(c2ccc(NC(=O)c3cccnc3NCc3ccncc3)cc2)CCCC1
Output: inactive

Task: Field: outcome | Entry: Cc1nc(NC(=O)N2CCC[C@H]2C(N)=O)sc1-c1ccnc(C(C)(C)C(F)(F)F)c1
Output: inactive

Task: Could you please tell me the result logged for Cc1nc2cc(-n3ncc(C(=O)c4cc5ccccc5[nH]4)c3N)ccc2[nH]1 in this assay?
Output: inactive

Task: Kindly provide the recorded test outcome for the following compound: CCS(=O)(=O)N1CCN(c2ccc(Nc3ncc(C(N)=O)c(NC4CC4)n3)cc2)CC1 [Cerdulatinib Hydrochloride]
Output: inactive

Task: For COc1c(OCCCN2CCOCC2)ccc2c1N=C(NC(=O)c1cnc(N)nc1)N1CCN=C21 , what call appears in the results of this test?
Output: inactive

Task: // param item: COc1ncc(-c2ccc3nccc(-c4ccnnc4)c3c2)cc1NS(=O)(=O)c1ccc(F)cc1F ; yields the recorded call
Output: inactive

Task: Would you mind telling me which call this test gave CCNC(=O)C#Cc1ccc2c(c1)NC(=O)/C2=C(\Nc1ccc(CN(C)C)cc1)c1ccccc1 ?
Output: inactive

Task: Any idea what this test logged for CCn1c(C(=O)N(C2CC2)C2CC2)cc2c3c(ncn3C)c(Nc3cc(C)n(C)n3)nc21 ?
Output: inactive

Task: Given O=C(Nc1nc2cccc(-c3ccc(CN4CCS(=O)(=O)CC4)cc3)n2n1)C1CC1 , state the outcome it received in this test.
Output: inactive

Task: Record request — test call for COCC(=O)NC/C=C/c1ccc2ncnc(Nc3ccc(Oc4ccc(C)nc4)c(C)c3)c2c1
Output: inactive

Task: Status in this test for C=CC(=O)N1CCC[C@H](n2c(=O)n(-c3ccc(Oc4ccccc4)cc3)c3c(N)ncnc32)C1 ?
Output: inactive

Task: Record request — test call for CNC(=O)c1cccc2cc(Oc3ccnc4cc(OCC5(N)CC5)c(OC)cc34)ccc12
Output: inactive

Task: Record lookup: outcome of this test for O=C(Cc1ccc(-c2ccc(OCCN3CCOCC3)cc2)cn1)NCc1ccccc1 ?
Output: inactive

Task: Status in this test for CC(C)c1cc(CNc2nc(Nc3cc(C4CC4)[nH]n3)cc(N3CCN(C)CC3)n2)on1 ?
Output: active

Task: # lookup: test call for C[C@H]1CNCCCN1S(=O)(=O)c1cccc2cncc(F)c12
Output: inactive

Task: // param item: Cc1nc(Nc2n[nH]c3c2CN(C(=O)N[C@H](CN(C)C)c2ccccc2)C3(C)C)c2sccc2n1 ; yields the recorded call
Output: inactive

Task: Kindly provide the recorded test outcome for the following compound: Cc1cccc(-c2nn3c(c2-c2ccnc4ccc(C(N)=O)cc24)CCC3)n1
Output: inactive
